# target_system: Nav 1.7 (Homo sapiens (Human), UniProt Q15858)
# Sequence (Q15858 whole entry): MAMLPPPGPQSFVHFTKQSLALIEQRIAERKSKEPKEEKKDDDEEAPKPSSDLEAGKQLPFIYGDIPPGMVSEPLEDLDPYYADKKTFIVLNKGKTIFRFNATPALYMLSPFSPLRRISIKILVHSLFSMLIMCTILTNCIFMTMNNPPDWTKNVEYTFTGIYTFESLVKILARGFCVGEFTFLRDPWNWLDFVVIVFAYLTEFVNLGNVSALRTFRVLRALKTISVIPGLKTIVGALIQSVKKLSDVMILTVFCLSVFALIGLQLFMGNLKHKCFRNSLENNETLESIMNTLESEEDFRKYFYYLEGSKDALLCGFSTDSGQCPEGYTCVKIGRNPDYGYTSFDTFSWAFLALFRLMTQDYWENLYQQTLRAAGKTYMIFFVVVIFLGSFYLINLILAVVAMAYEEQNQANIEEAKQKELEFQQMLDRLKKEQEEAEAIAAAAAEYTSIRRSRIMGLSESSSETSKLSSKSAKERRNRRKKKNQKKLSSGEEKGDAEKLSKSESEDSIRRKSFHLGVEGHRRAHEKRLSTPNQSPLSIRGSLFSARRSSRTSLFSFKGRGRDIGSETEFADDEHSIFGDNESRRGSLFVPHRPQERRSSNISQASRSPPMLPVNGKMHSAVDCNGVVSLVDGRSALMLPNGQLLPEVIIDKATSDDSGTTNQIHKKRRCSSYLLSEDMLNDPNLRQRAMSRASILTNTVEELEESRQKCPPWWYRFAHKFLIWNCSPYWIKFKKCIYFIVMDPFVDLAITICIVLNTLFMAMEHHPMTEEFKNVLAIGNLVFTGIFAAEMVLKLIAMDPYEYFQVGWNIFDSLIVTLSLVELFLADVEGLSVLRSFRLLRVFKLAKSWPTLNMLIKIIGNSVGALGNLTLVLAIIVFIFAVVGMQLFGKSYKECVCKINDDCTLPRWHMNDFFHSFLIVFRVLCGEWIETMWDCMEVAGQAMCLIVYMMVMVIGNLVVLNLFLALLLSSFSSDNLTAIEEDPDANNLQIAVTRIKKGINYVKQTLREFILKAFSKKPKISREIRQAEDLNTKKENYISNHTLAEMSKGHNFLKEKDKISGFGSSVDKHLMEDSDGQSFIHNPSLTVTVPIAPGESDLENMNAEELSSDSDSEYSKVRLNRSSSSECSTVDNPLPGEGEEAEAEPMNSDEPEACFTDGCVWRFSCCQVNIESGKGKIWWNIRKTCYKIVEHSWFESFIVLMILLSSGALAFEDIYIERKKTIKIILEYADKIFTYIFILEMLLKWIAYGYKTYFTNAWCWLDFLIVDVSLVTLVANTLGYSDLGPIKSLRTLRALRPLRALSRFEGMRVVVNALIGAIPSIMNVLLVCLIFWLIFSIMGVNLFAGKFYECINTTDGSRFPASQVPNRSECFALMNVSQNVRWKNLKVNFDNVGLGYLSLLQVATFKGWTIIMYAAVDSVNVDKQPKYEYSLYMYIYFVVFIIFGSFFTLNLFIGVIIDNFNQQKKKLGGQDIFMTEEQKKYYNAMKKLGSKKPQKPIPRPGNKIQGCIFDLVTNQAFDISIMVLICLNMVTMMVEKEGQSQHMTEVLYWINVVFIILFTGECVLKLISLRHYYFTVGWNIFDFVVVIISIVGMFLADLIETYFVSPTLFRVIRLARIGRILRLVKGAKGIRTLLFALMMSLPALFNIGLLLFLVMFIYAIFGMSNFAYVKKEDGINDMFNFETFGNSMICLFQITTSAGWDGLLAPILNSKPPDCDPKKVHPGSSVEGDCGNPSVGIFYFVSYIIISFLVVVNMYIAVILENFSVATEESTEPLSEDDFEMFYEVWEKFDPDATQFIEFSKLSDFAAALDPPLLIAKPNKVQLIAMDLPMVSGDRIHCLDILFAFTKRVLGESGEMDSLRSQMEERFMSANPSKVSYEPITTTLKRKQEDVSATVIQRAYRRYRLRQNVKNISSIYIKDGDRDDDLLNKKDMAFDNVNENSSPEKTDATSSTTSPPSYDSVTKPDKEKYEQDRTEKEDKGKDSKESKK
# experiment_notes: in-vitro Nav 1.7 PX (IC50)
# Format: cell-based
# measurement_context: in-vitro Nav 1.7 PX data
Would you kindly list IC50 for each of these molecules?
The response must be a number in nM with no trailing unit.

Q) Answer with the recorded IC50 for the molecule listed here: COc1cc(-c2ccccn2)c(F)cc1-n1c(=O)ccc2cc(S(=O)(=O)Nc3ccon3)ccc21
A) 1660

Q) Answer with the recorded IC50 for the molecule listed here: COc1cc(-c2ccc(F)c(F)c2)ccc1-n1c(=O)ccc2cc(S(=O)(=O)Nc3ncco3)ccc21
A) 83

Q) Answer with the recorded IC50 for the molecule listed here: COc1cc(-c2ccc(C(F)(F)F)cc2)c(F)cc1-n1c(=O)ccc2cc(S(=O)(=O)Nc3ncc(F)cn3)ccc21
A) 33

Q) Answer with the recorded IC50 for the molecule listed here: COc1cc(-c2cncc(F)c2)c(F)cc1-n1c(=O)ccc2cc(S(=O)(=O)Nc3ccon3)ccc21
A) 795

Q) Answer with the recorded IC50 for the molecule listed here: COc1cc(-c2cccc(C(C)C)c2)ccc1-n1c(=O)ccc2cc(S(=O)(=O)Nc3ccon3)ccc21
A) 9

Q) Answer with the recorded IC50 for the molecule listed here: COc1ccc(-c2cccc(Cl)c2)cc1-n1c(=O)ccc2cc(S(=O)(=O)Nc3ccon3)ccc21 [Example 841]
A) 27

Q) Answer with the recorded IC50 for the molecule listed here: COc1cc(-c2cc(C)ccc2Cl)c(F)cc1-n1c(=O)ccc2cc(S(=O)(=O)Nc3ccon3)ccc21
A) 6

---

Would you kindly list IC50 for each of these compounds?
# target_system: Nav 1.5 (Homo sapiens (Human))
# Sequence (Q14524 whole entry): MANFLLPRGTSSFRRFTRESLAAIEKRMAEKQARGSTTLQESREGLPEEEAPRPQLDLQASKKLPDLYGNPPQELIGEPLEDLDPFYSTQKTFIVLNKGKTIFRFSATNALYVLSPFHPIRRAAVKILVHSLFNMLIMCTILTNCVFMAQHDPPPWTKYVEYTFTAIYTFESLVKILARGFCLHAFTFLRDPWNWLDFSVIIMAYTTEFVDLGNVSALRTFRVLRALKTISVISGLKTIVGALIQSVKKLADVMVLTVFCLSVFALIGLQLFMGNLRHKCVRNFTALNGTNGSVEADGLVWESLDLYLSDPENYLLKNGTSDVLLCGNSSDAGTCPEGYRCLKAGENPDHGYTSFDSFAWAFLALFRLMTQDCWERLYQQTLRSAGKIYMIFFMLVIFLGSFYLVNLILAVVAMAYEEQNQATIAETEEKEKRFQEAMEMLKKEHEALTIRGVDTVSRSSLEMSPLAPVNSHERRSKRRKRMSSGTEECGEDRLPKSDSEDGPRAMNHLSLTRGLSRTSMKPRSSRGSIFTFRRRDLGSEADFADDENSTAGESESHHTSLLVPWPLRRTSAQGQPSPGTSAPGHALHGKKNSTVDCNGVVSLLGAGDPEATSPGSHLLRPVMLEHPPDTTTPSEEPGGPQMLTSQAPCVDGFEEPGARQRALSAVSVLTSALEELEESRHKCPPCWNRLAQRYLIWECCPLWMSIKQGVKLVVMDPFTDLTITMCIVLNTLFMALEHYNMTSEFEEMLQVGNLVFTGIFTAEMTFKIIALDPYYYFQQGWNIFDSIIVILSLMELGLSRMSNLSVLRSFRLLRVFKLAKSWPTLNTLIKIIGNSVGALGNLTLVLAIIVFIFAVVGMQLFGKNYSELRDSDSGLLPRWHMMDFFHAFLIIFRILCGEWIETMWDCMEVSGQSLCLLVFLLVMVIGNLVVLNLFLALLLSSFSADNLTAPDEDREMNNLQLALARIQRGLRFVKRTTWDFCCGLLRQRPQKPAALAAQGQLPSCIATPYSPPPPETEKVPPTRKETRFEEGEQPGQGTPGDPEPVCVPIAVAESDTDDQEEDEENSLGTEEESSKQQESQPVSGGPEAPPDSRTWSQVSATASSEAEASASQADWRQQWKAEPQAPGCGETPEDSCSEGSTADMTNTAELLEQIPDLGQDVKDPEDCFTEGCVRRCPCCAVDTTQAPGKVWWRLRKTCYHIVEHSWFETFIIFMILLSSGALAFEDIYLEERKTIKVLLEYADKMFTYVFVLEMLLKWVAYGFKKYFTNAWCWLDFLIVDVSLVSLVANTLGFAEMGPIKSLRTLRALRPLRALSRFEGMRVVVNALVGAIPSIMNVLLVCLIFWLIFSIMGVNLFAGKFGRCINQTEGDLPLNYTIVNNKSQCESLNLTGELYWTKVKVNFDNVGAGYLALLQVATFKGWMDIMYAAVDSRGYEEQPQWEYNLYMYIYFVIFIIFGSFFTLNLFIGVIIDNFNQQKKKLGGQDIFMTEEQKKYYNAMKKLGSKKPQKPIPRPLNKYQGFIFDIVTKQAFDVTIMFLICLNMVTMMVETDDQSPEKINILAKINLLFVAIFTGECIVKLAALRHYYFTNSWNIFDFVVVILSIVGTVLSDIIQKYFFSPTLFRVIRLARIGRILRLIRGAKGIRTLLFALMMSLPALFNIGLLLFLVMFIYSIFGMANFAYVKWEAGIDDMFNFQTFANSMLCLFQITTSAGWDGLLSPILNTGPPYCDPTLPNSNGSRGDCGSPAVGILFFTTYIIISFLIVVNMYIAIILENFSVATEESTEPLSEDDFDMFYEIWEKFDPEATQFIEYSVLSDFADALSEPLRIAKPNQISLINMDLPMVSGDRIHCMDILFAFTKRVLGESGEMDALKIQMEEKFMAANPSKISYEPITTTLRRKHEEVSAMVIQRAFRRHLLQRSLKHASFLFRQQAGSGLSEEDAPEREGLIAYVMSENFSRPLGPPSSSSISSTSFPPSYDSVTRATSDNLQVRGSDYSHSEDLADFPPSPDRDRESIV
# experiment_notes: in-vitro Nav 1.5 PX (IC50)
# measurement_context: read-out: Nav 1.5 PX IC50; in-vitro Nav 1.5 PX data (PatchXpress)

Q) Answer with the recorded IC50 for the compound listed here: COc1cc(-c2cc(OC)c(-n3c(=O)ccc4cc(S(=O)(=O)Nc5cccnn5)ccc43)cc2F)ccc1Cl (atropisomer, axis not shown; (P))
A) > 10 µM

Q) Answer with the recorded IC50 for the compound listed here: COc1cc(-c2cc(OC)c(-n3c(=O)ccc4cc(S(=O)(=O)Nc5ncccn5)ccc43)cc2F)ccc1Cl (atropisomer, axis not shown; (P))
A) > 10 µM

---

# target_system: UniProt Q15858
# experiment_notes: in-vitro Nav 1.7 PX (IC50)
# Format: cell-based
# measurement_context: in-vitro Nav 1.7 PX data
Would you kindly list IC50 for each of these compounds?
The response must be a number in nM with no trailing unit.

Q) Answer with the recorded IC50 for the compound listed here: COc1cc(CC2CCCCC2)c(F)cc1-n1c(=O)ccc2cc(S(=O)(=O)Nc3ncc(F)cn3)ccc21
A) 88

Q) Answer with the recorded IC50 for the compound listed here: COc1cc(-c2cccc(Cl)c2OC)c(F)cc1-n1c(=O)ccc2cc(S(=O)(=O)Nc3ccon3)ccc21
A) 16

Q) Answer with the recorded IC50 for the compound listed here: COc1cccc(-c2cc(OC)c(-n3c(=O)ccc4cc(S(=O)(=O)Nc5ccon5)ccc43)cc2F)n1
A) 70

Q) Answer with the recorded IC50 for the compound listed here: COc1ccc(-c2cc(F)cc(F)c2)cc1-n1c(=O)ccc2cc(S(=O)(=O)Nc3ccon3)ccc21
A) 53

Q) Answer with the recorded IC50 for the compound listed here: O=c1ccc2cc(S(=O)(=O)Nc3ccon3)ccc2n1-c1ccc(-c2cccc(C(F)(F)F)c2)cc1
A) 732

Q) Answer with the recorded IC50 for the compound listed here: COc1cc(C#CC(C)(C)C)c(F)cc1-n1c(=O)ccc2cc(S(=O)(=O)Nc3ccon3)ccc21
A) 80

Q) Answer with the recorded IC50 for the compound listed here: COc1nc(OC2CCC2)c(Cl)cc1-n1c(=O)ccc2cc(S(=O)(=O)Nc3ccon3)ccc21
A) 4660

Q) Answer with the recorded IC50 for the compound listed here: COc1ccc(-c2cc(OC)c(-n3c(=O)ccc4cc(S(=O)(=O)Nc5ccon5)ccc43)cc2F)c(Cl)c1
A) 37

Q) Answer with the recorded IC50 for the compound listed here: Cc1cc(-c2cc(C)c(-n3c(=O)ccc4cc(S(=O)(=O)Nc5ncccn5)ccc43)cc2F)ccc1Cl (atropisomer, axis not shown; (M)) [Example 650]
A) 3800

Q) Answer with the recorded IC50 for the compound listed here: COc1cc(C#CC(C)(C)O)c(F)cc1-n1c(=O)ccc2cc(S(=O)(=O)Nc3ccon3)ccc21
A) 7380

Q) Answer with the recorded IC50 for the compound listed here: COc1cc(-c2cccc(OC)c2C)ccc1-n1c(=O)ccc2cc(S(=O)(=O)Nc3ccon3)ccc21
A) 52

Q) Answer with the recorded IC50 for the compound listed here: COc1cc(-c2cc(Cl)ccc2C)c(F)cc1-n1c(=O)ccc2cc(S(=O)(=O)Nc3ccon3)ccc21
A) 5

Q) Answer with the recorded IC50 for the compound listed here: COc1cc(Cl)c(-c2cc(F)cc(Cl)c2)cc1-n1c(=O)ccc2cc(S(=O)(=O)Nc3ccon3)ccc21 (atropisomer, axis not shown; (M)) [Example 615]
A) 10800

Q) Answer with the recorded IC50 for the compound listed here: COc1ccc(-c2cc(OC)c(-n3c(=O)ccc4cc(S(=O)(=O)Nc5ccon5)ccc43)cc2F)cc1C
A) 48

Source: patent US9212182B2
